tested on: PC3; assay: Tumor cell growth inhibitory activity; type: cell-based; conditions: Homo sapiens, PC-3; Table 1, compounds 10-13; read-out: Tumor cell growth inhibitory activity (IC50, μM) PC3
metric name: IC50 (µM)

compound smiles | metric name | numeric result
COc1cc(/C=C2/C(C)=C(CN(Cc3ccncc3)Cc3ccncc3)c3cc(F)ccc32)cc(OC)c1OC | IC50 | 9.09
CSc1ccc(/C=C2/C(C)=C(CN)c3cc(F)ccc32)cc1 | IC50 | 33.6
COc1cc(/C=C2/C(C)=C(CN)c3cc(F)ccc32)cc(OC)c1OC | IC50 | 29.7
CSc1ccc(/C=C2/C(C)=C(CN(Cc3ccncc3)Cc3ccncc3)c3cc(F)ccc32)cc1 | IC50 | 12.7

###

Reported IC50 values for a set of compounds
system: MDA-MB-231; experiment: Tumor cell growth inhibition, cell viability assay (Cell Titer Glo), 72 h; conditions: Homo sapiens, MDA-MB-231, read-out: Tumor cell growth inhibitory activity (IC50, μM) MDA-MB-231 (breast)

compound | unit text | IC50
CSc1ccc(/C=C2/C(C)=C(CN(Cc3ccncc3)Cc3ccncc3)c3cc(F)ccc32)cc1 [Compound 12] | µM | 9.5
COc1cc(/C=C2/C(C)=C(CN)c3cc(F)ccc32)cc(OC)c1OC [Compound 11] | µM | 15.3
COc1cc(/C=C2/C(C)=C(CN(Cc3ccncc3)Cc3ccncc3)c3cc(F)ccc32)cc(OC)c1OC [Compound 13] | µM | 8.21
CSc1ccc(/C=C2/C(C)=C(CN)c3cc(F)ccc32)cc1 [Compound 10] | µM | 19.3

###

Reported IC50 values for a set of compounds
target: UniProt P23219; assay: COX inhibition, colorimetric assay with recombinant COX enzymes
Sequence (P23219 24-599): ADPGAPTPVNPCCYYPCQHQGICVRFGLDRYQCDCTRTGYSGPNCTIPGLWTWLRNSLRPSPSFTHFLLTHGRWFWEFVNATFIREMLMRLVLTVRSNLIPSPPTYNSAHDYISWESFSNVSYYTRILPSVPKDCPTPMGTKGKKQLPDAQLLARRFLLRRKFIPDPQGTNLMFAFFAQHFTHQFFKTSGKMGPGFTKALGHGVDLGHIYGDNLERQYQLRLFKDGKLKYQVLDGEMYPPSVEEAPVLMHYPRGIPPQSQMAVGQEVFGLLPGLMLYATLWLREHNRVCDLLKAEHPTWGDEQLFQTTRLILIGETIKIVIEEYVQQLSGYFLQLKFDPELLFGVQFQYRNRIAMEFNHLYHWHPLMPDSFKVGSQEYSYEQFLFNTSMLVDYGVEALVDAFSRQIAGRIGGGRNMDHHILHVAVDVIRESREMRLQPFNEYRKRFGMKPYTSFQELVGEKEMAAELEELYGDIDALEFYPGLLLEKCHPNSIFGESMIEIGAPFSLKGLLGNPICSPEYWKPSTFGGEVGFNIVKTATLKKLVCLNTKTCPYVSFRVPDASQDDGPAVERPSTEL

compound smiles | IC50
CC1=C(CCNCc2ccccc2)c2cc(F)ccc2/C1=C\c1ccc(S(C)(=O)=O)cc1 | > 100 µM
CSc1ccc(/C=C2/C(C)=C(CCNCc3ccccc3)c3cc(F)ccc32)cc1 | > 200 µM

###

Reported IC50 values for a set of compounds
system: Fetal human colonocytes (FHC); assay: Cell growth inhibition, cell viability assay (Cell Titer Glo), 72 h; assay type: cell-based; conditions: Table 3, normal colonocytes, 72 hours of treatment

compound | unit text | readout relation | IC50
CSc1ccc(/C=C2/C(C)=C(CC(=O)O)c3cc(F)ccc32)cc1 [Sulindac sulfide, reference compound] | µM | > | 200
CC1=C(CCNCc2ccccc2)c2cc(F)ccc2/C1=C\c1ccc(S(C)(=O)=O)cc1 [Compound 9] | µM | = | 11.2
CSc1ccc(/C=C2/C(C)=C(CCNCc3ccccc3)c3cc(F)ccc32)cc1 [Compound 1] | µM | = | 7.83

###

system: HT29; assay: Tumor cell growth inhibition, cell viability assay (Cell Titer Glo), 72 h; type: cell-based; conditions: Homo sapiens, HT-29; Table 3; colon adenocarcinoma; 72 hours of treatment; read-out: HT29 (IC50)

compound | IC50
CSc1ccc(/C=C2/C(C)=C(CCNCc3ccccc3)c3cc(F)ccc32)cc1 [Compound 1] | 2.67 µM
CC1=C(CCNCc2ccccc2)c2cc(F)ccc2/C1=C\c1ccc(S(C)(=O)=O)cc1 [Compound 9] | 2.02 µM
CSc1ccc(/C=C2/C(C)=C(CC(=O)O)c3cc(F)ccc32)cc1 [Sulindac sulfide, reference compound] | 73.6 µM

###

test system: MDA-MB-231; test: Tumor cell growth inhibition, cell viability assay (Cell Titer Glo), 72 h; settings: Homo sapiens, MDA-MB-231, read-out: Breast tumor cell growth inhibitory activity (IC50, μM) MDA-MB-231
Reported IC50 values for a set of compounds
metric name: IC50 (µM)

compound | metric name | numeric result
CSc1ccc(/C=C2/C(C)=C(CCNCc3ccccc3)c3cc(F)ccc32)cc1 [Compound 1] | IC50 | 5.8
CSc1ccc(/C=C2/C(C)=C(CCNCCN3CCCCC3)c3cc(F)ccc32)cc1 [Compound 3] | IC50 | 5.3
CSc1ccc(/C=C2/C(C)=C(CCN)c3cc(F)ccc32)cc1 [Compound 4] | IC50 | 5.5
CC1=C(CCNCc2ccco2)c2cc(F)ccc2/C1=C\c1ccc([S+](C)[O-])cc1 (stereo not shown) [Compound 7] | IC50 | 3.7

###

system: Colo741; assay: Tumor cell growth inhibition, cell viability assay (Cell Titer Glo), 72 h; format: cell-based; conditions: Homo sapiens, COLO-741; Table 3; colon adenocarcinoma; 72 hours of treatment
metric name: IC50 (µM)

molecule | numeric result
CSc1ccc(/C=C2/C(C)=C(CCNCc3ccccc3)c3cc(F)ccc32)cc1 [Compound 1] | 8.85
CSc1ccc(/C=C2/C(C)=C(CC(=O)O)c3cc(F)ccc32)cc1 [Sulindac sulfide, reference compound] | 150
CC1=C(CCNCc2ccccc2)c2cc(F)ccc2/C1=C\c1ccc(S(C)(=O)=O)cc1 [Compound 9] | 5.87

###

Reported IC50 values for a set of compounds
tested on: HCT116; assay: Tumor cell growth inhibition, cell viability assay (Cell Titer Glo), 72 h; type: cell-based; settings: Homo sapiens, HCT-116; Table 1, colon; read-out: Colon tumor cell growth inhibitory activity (IC50, μM) HCT116
metric name: IC50 (µM)

compound smiles | numeric result
CSc1ccc(/C=C2/C(C)=C(CCNCCN3CCCCC3)c3cc(F)ccc32)cc1 | 3.8
CSc1ccc(/C=C2/C(C)=C(CCNCc3ccccc3)c3cc(F)ccc32)cc1 | 4.9
CSc1ccc(/C=C2/C(C)=C(CCN)c3cc(F)ccc32)cc1 | 4.9
